Origin of measurements: patent US6548241B1

type: physicochemical; details: ACD-A Anticoagulant, aqueous buffer, thermodynamic from solid, ACD-A Anticoagulant; absorbance at 447 nm; read-out: Concentration (447) of saturated solution
reported-property: solubility thermodynamic at 1 h (µg/mL)

smiles=Cc1cc2nc3c(=O)[nH]c(=O)nc-3n(C[C@H](O)[C@H](O)[C@H](O)CO)c2cc1C measurement_units=µg/mL value_reported=60.3
